subject-of-test: human A2B receptors (Homo sapiens, UniProt P29275)
Construct: expressed in transfected cells; host or cells: HEK293
Sequence (P29275 whole entry): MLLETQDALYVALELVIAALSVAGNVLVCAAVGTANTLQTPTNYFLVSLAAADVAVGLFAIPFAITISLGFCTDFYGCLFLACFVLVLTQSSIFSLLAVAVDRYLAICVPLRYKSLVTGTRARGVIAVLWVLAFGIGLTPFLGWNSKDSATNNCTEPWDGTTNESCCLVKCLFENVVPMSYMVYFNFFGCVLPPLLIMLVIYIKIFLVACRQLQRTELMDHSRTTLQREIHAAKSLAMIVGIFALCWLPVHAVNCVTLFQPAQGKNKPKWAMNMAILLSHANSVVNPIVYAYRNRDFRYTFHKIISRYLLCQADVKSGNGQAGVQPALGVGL
assay-overview: Functional human A2B receptor activity, recombinant HEK293 cells, cAMP (HTRF)
Format: cell-based
condition-notes: read-out: A2B (Category)
experimental-readout: IC50

molecule | test-value
O=C(c1cc2c(cn1)c(-c1cnc3c(F)cc(F)cn13)nn2CC1CC1)N1CCCOCC1 | < 1000 nM
O=C(c1cc2c(cn1)c(-c1cnn3ccccc13)nn2CC(F)(F)F)N1CCOCC(O)C1 (stereo not shown) | < 1000 nM
O=C(c1cc2c(cn1)c(-c1cnc3ccc(F)cn13)nn2CCF)N1CCCCCC1 | < 1000 nM

Could you now consider this next molecule?
Record O=C(c1cc2c(cn1)c(-c1cnc3c(F)cc(F)cn13)nn2CC(F)(F)F)N1CC2CC3CC(C2)CC1C3 , field IC50: < 100 nM
